Recorded values, source the Kinase Knowledgebase extract (Sharma et al. 2016).

Property: IC50; scope: individual molecules
- tested.target: UniProtKB P00533
- Sequence (P00533 whole entry, looked up): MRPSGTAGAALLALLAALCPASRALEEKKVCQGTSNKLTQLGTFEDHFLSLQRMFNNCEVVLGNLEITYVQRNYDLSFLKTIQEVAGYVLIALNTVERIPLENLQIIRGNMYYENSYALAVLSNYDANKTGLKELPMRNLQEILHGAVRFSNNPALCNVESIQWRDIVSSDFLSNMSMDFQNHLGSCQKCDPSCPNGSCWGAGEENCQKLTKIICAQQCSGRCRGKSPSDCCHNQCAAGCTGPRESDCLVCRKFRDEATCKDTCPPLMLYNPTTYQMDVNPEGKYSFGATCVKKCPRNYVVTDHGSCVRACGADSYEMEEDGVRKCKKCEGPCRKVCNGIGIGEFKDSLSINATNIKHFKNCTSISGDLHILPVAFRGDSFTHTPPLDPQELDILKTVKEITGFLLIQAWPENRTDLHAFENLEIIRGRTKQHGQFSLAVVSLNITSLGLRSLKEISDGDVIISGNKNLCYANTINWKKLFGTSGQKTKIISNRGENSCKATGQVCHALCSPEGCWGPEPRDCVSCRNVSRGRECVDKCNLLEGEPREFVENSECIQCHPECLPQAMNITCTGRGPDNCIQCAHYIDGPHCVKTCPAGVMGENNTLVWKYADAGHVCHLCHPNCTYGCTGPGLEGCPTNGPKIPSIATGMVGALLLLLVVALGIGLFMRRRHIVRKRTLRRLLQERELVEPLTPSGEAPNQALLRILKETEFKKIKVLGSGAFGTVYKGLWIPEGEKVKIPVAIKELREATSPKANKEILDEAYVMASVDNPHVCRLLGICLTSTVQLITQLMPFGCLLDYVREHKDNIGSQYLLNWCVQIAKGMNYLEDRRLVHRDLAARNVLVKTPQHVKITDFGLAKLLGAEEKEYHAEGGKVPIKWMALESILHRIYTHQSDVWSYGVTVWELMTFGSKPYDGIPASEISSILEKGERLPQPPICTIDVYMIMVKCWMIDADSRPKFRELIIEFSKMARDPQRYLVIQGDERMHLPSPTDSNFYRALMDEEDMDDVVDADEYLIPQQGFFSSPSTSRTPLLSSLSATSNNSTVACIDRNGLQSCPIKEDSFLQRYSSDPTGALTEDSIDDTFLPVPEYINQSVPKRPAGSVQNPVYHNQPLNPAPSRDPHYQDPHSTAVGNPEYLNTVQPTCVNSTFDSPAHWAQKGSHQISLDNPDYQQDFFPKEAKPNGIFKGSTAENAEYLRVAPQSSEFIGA
- condition: a431

smiles.text	sign.qualifier	IC50 [µg/mL]
COCCOc1cc2ncc(C#N)c(Nc3ccc4cn[nH]c4c3)c2cc1OCCOC	=	1.96
CCOc1cc2ncc(C#N)c(Nc3ccc4cc[nH]c4c3)c2cc1OCC	=	0.123
CCOc1cc2ncc(C#N)c(Nc3ccc(OCc4ccccc4)c(Cl)c3)c2cc1NC(=O)/C=C/CN(C)C	=	0.062
CCOc1cc2ncc(C#N)c(Nc3ccc(Cn4ccnc4)c(Cl)c3)c2cc1[N+](=O)[O-]	>	5
CCOc1cc2ncc(C#N)c(Nc3ccc(Cn4ccnc4)c(Cl)c3)c2cc1N	>	5
CCOc1cc2ncc(C#N)c(Nc3ccc4c(c3)OCCO4)c2cc1OCC	=	0.27
COc1cc2ncc(C#N)c(Nc3ccc(Sc4nccs4)c(Cl)c3)c2cc1[N+](=O)[O-]	=	0.148
CCOc1cc2ncc(C#N)c(Nc3ccc(Sc4nc(C)cc(C)n4)c(Cl)c3)c2cc1NC(=O)/C=C/CN(C)C	=	0.24
CCOc1cc2ncc(C#N)c(Nc3cc(Cl)c(Nc4nncs4)c(C(F)(F)F)c3)c2cc1[N+](=O)[O-]	=	1.79
CCOc1cc2ncc(C#N)c(Nc3ccc4cn[nH]c4c3)c2cc1OC	=	0.0368
COc1cc2c(Nc3ccc(Sc4nccn4C)c(Cl)c3)c(C#N)cnc2cc1OCCCn1ccnn1	=	1.83
COc1cc2ncc(C#N)c(Nc3ccc4cn[nH]c4c3)c2cc1OCCCN1CCOCC1	>	5
CCOc1cc2ncc(C#N)c(Nc3ccc(Sc4nccc(C)n4)c(Cl)c3)c2cc1N	=	1.53
COc1cc2ncc(C#N)c(Nc3ccc(Sc4nccn4C)c(Cl)c3)c2cc1[N+](=O)[O-]	=	2.88
COc1cc2ncc(C#N)c(Nc3ccc(N(c4ccc(N(Cc5cccnc5)C(C)=O)c(Cl)c4)c4c(OC)cnc5ccccc45)c(Cl)c3)c2cc1N	>	5
CCOc1cc2ncc(C#N)c(Nc3ccc(Oc4ccncc4)c(Cl)c3)c2cc1[N+](=O)[O-]	>	5
COc1cc2ncc(C#N)c(Nc3ccc(NCc4cccnc4)c(Cl)c3)c2cc1[N+](=O)[O-]	=	1.6
COc1cc2ncc(C#N)c(Nc3ccc(N(Cc4cccnc4)C(C)=O)c(Cl)c3)c2cc1NC(=O)/C=C/CN(C)C	=	0.646
CCOc1cc2ncc(C#N)c(Nc3ccc4c(c3)CCC4)c2cc1OCC	=	0.342
COc1cc2ncc(C#N)c(Nc3ccc(Sc4nccn4C)c(Cl)c3)c2cc1N	=	3.04
COc1ccc2c(N(c3ccc(N(Cc4cccnc4)C(C)=O)c(Cl)c3)c3ccc(Nc4c(C#N)cnc5cc(OC)c(NC(C)=O)cc45)cc3Cl)c(C#N)cnc2c1	=	3.68
COc1cc2nc(Sc3ccc(Nc4c(C#N)cnc5cc(OC)c([N+](=O)[O-])cc45)cc3Cl)[nH]c(=O)c2cc1O	=	2.28
CCOc1cc2ncc(C#N)c(Nc3ccc4c(c3)CCC4=O)c2cc1OCC	=	0.0181
COCCN(C)C/C=C/C(=O)Nc1cc2c(Nc3ccc(Sc4nccs4)c(Cl)c3)c(C#N)cnc2cc1OC	=	0.03
COc1cc2ncc(C#N)c(Nc3ccc(Sc4nccs4)c(Cl)c3)c2cc1N	=	0.663
CCOc1cc2c(Nc3ccc4cn[nH]c4c3)c(C#N)cnc2cc1OC	=	0.786
